src = PubChem BioAssay

experiment: small-molecule microarray binders of probe aLefty2, primary screen, biochemical, biotinylated probe, 635/667 nm fluorescence (AID 1094); settings: higher = more signal;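 note: score merges spot fluorescence near 667 nm with spot signal-to-noise ratio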
assay metric: composite z-score

Asked: Reported composite z-score for COC(=O)C1=CC(CCCO)=CC(C2CC2)N(Cc2cccc(OC(F)(F)F)c2)C=C1C(=O)OC (stereo not drawn) : what is it?
Given back: 0.0386

Asked: Reported composite z-score for COC(=O)C(CC#Cc1ccc2c(c1)[C@]1(C(=O)N2)[C@H](c2ccc(O)cc2)N2[C@H](c3ccccc3)[C@H](c3ccccc3)OC(=O)[C@H]2[C@@H]1C(=O)N1CCc2cc(OC)c(OC)cc2C1)C(=O)OC : what is it?
Given back: -0.109

Asked: Reported composite z-score for C=C(/C(=C/C[C@H](OC(=O)c1ccncc1)c1ccccc1OCCO)c1cc(C(=O)OC)ccc1OC)C(C)C : what is it?
Given back: -0.159

Asked: Reported composite z-score for C=CCC(OC(C)=O)[C@@H]1[C@@H](N(Cc2cc3ccccc3o2)C(=O)c2cccc3ccccc23)c2cc(OCCCO)ccc2N1C(=O)c1ccc2ccccc2c1 (stereo partly drawn) : what is it?
Given back: 0.0826

Asked: Reported composite z-score for C=CCC(OC(C)=O)[C@@H]1[C@@H](N(Cc2ccc(-c3cccc(C(F)(F)F)c3)o2)C(=O)Cc2ccc(F)cc2)c2cc(OCCCO)ccc2N1C(=O)c1ccc2ccccc2c1 (stereo partly drawn) : what is it?
Given back: -0.0485

Asked: Reported composite z-score for C[N+](C)(C)CCCCCCNC(=O)[C@@H]1C[C@@H]2C(=O)N[C@@H](Cc3ccccc3)C(=O)N2[C@@H]1c1ccc(O)cc1 : what is it?
Given back: -0.183

Asked: Reported composite z-score for COc1ccc(C#Cc2ccc3c(c2)[C@]2(C(=O)N3)[C@H](c3ccc(OCCO)cc3)N3[C@H](c4ccccc4)[C@H](c4ccccc4)OC(=O)[C@H]3[C@@H]2C(=O)O)cc1 : what is it?
Given back: -0.232

Asked: Reported composite z-score for CCCCN1CC=CC23O[C@@H]4C=CCOC(=O)[C@@H]4[C@H]2C(=O)N(C(CO)C(C)C)[C@@H]3C1=O (stereo partly drawn) : what is it?
Given back: -0.118

Asked: Reported composite z-score for CN1C(=O)[C@]2(CCC(=O)OC(C)(C)C)N=C(c3ccc(OCCCO)cc3)O[C@@H]2c2ccccc21 : what is it?
Given back: 0.0079

Asked: Reported composite z-score for COc1cccc(C[C@H]2C[C@@H](CO[Si](C(C)C)(C(C)C)C(C)C)N3C(=O)[C@@]4(C(C)=O)O[C@@]23[C@@H]2C(=O)N(C)C(=O)[C@@H]24)c1 : what is it?
Given back: -0.105

Asked: Reported composite z-score for COCCOC(=O)N1C(=O)[C@@]2(c3cc(C#CCCO)ccc31)[C@H](c1ccc(O)cc1)N1[C@H](c3ccccc3)[C@H](c3ccccc3)OC(=O)[C@H]1[C@@H]2C(=O)N1CCc2cc(OC)c(OC)cc2C1 : what is it?
Given back: -0.0616

Asked: Reported composite z-score for CC(C)N1CC=CC23O[C@@H]4C=CCCOC(=O)C4[C@H]2C(=O)N(CCCCCO)[C@@H]3C1=O (stereo partly drawn) : what is it?
Given back: -0.242

Asked: Reported composite z-score for COCCOC(=O)N1C(=O)[C@@]2(c3ccccc31)[C@H](C(N)=O)[C@H]1C(=O)O[C@H](c3ccccc3)[C@H](c3ccccc3)N1[C@@H]2c1ccc(OCCO)cc1 : what is it?
Given back: -0.0862
